Consider the following Ki values measured on Bcl-xL (Homo sapiens, UniProt Q07817).
Sequence (Q07817 whole entry): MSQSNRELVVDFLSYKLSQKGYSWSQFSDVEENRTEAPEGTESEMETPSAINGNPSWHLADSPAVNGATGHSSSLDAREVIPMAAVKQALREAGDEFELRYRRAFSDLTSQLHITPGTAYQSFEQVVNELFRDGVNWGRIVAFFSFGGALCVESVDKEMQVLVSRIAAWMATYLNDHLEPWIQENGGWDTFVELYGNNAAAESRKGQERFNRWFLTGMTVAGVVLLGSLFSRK

Task item: Complete the entry with Ki for O=C(Nc1nc2ccccc2s1)c1cccc2c1CN(c1ccc(-c3cnn(CC45CC6CC(C4)CC(N4CCS(=O)(=O)CC4)(C6)C5)c3)c(C(=O)O)n1)CC2 [Example 33]
Reply: 0.1 nM

Task item: Complete the entry with Ki for Cc1c(-c2ccc(N3CCc4cccc(C(=O)Nc5nc6ccccc6s5)c4C3)nc2C(=O)O)ccnc1NC12CC3CC(CC(C3)C1)C2 [Example 76]
Reply: < 0.1 nM

Task item: Complete the entry with Ki for Cc1c(-c2ccc(N3CCc4cccc(C(=O)Nc5nc6ccccc6s5)c4C3)nc2C(=O)NS(C)(=O)=O)cnn1CC12CC3CC(CC(C3)C1)C2 [Example 17]
Reply: < 0.1 nM

###

Measured EC50, listed per entry.
- Target Or System: mouse FL5.12 cells transfected with Bcl-xL (Homo sapiens, UniProt Q07817)
- Sequence (Q07817 whole entry, change not shown): as the sequence (Q07817 whole entry) above
- Protocol: FL5.12 cellular assay (cell viability, CellTiter-Glo)
- Condition Summary: IL-3-depleted, 3% FBS assay media, 24 hours; read-out: FL5.12 Bcl-xL, −IL3, EC50
Write the number in nM without appending the unit.

Check out these entries, answers already filled in.
compound="COCCOCCOC12CC3CC(CC(Cn4ncc(-c5ccc(N6CCc7cccc(C(=O)Nc8nc9ccccc9s8)c7C6)nc5C(=O)O)c4C)(C3)C1)C2 [Example 63]" readout_name=EC50 result_number=3
compound="Cc1c(OC23CC4CC(CC(C4)C2)C3)cccc1-c1ccc(N2CCc3cccc(C(=O)Nc4nc5ccccc5s4)c3C2)nc1C(=O)O [Example 28]" readout_name=EC50 result_number=22

Now look at this one.
Task item: Complete the entry with EC50 for Cc1c(-c2ccc(N3CCc4cccc(C(=O)Nc5cn6ncccc6n5)c4C3)nc2C(=O)O)cnn1CC12CC3CC(CC(C3)C1)C2 [Example 77]
Reply: 4

###

Consider the following pKi values measured on Bcl-xL (Homo sapiens, UniProt Q07817).
pKi: −log10 of the molar value.

Check out these entries, answers already filled in.
compound="Cc1c(-c2ccc(N3CCc4cccc(C(=O)Nc5nc6ccncc6s5)c4C3)nc2C(=O)O)cnn1CC12CC3CC(CC(C3)C1)C2 [Example 78]" target_or_system="Bcl-xL (Homo sapiens, UniProt Q07817)" result="> 10.00"
compound="COC12CC3(C)CC(C)(CC(Cn4ncc(-c5ccc(N6CCc7cccc(C(=O)Nc8nc9ccccc9s8)c7C6)nc5C(=O)O)c4C)(C3)C1)C2 [Example 38]" target_or_system="Bcl-xL (Homo sapiens, UniProt Q07817)" result="> 10.00"
compound="Cc1c(-c2ccc(N3CCc4cccc(C(=O)Nc5nc6ccccc6s5)c4C3)nc2C(=O)O)cnn1CC12CC3CC(C)(CC(C)(C3)C1)C2 [Example 32]" target_or_system="Bcl-xL (Homo sapiens, UniProt Q07817)" result="> 10.00"
compound="Cc1c(-c2ccc(N3CCc4cccc(C(=O)Nc5nc6ccccc6s5)c4C3)nc2C(=O)O)nnn1CC12CC3CC(CC(C3)C1)C2 [Example 57]" target_or_system="Bcl-xL (Homo sapiens, UniProt Q07817)" result="> 10.00"
compound="N#Cc1c(NC23CC4CC(CC(C4)C2)C3)cccc1-c1ccc(N2CCc3cccc(C(=O)Nc4nc5ccccc5s4)c3C2)nc1C(=O)O [Example 47]" target_or_system="Bcl-xL (Homo sapiens, UniProt Q07817)" result=9.70

Now look at this one.
Task item: Complete the entry with pKi for COC1(Cn2ncc(-c3ccc(N4CCc5cccc(C(=O)Nc6nc7ccccc7s6)c5C4)nc3C(=O)O)c2C)CCCC2(CC2)C1 (stereo not drawn) [Example 79]
Reply: > 10.00

###

- Target Or System: Bcl-xL (Homo sapiens, UniProt Q07817)
Measured pKi, listed per entry.
By convention, pKi is the negative base-10 log of a molar concentration.

Check out these entries, answers already filled in.
compound="O=C(Nc1nc2ccccc2s1)c1cccc2c1CN(c1ccc(-c3cnn(CC4CC5CCC(C4)N5C(=O)OCc4ccccc4)c3)c(C(=O)O)n1)CC2 (stereo not drawn) [Example 84]" result_number=9.05
compound="Cc1c(-c2ccc(N3CCc4cccc(C(=O)Nc5nc6ccccc6s5)c4C3)nc2C(=O)O)cccc1S(=O)(=O)NC12CC3CC(CC(C3)C1)C2 [Example 51]" result_number=9.52
compound="Cc1c(C(=O)NC23CC4CC(CC(C4)C2)C3)cccc1-c1ccc(N2CCc3cccc(C(=O)Nc4nc5ccccc5s4)c3C2)nc1C(=O)O [Example 54]" result_number=8.70

Now look at this one.
Task item: Complete the entry with pKi for Cc1c(-c2ccc(N3Cc4c(C(=O)Nc5nc6ccccc6s5)cccc4C(C)(C)C3)nc2C(=O)O)cnn1CC12CC3CC(CC(C3)C1)C2 [Example 14]
Reply: 9.70

###

Measured Ki, listed per entry.
- Target Or System: Bcl-xL (Homo sapiens, UniProt Q07817)
- Protocol: TR-FRET binding assay, competition with F-Bak for Bcl-xL
- Condition Summary: competition with F-Bak probe, GST-Bcl-xL

Check out these entries, answers already filled in.
molecule="COCCOCCOC12CC3CC(CC(Cn4ncc(-c5ccc(N6CCc7cccc(C(=O)Nc8nc9ccccc9s8)c7C6)nc5C(=O)O)c4C)(C3)C1)C2 [Example 63]" result="< 0.1 nM"
molecule="Cc1c(-c2ccc(N3CCc4cccc(C(=O)Nc5cn6ncccc6n5)c4C3)nc2C(=O)O)cnn1CC12CC3CC(CC(C3)C1)C2 [Example 77]" result="< 0.1 nM"
molecule="Cc1c(-c2ccc(N3CCc4cccc(C(=O)Nc5nc6cccnc6s5)c4C3)nc2C(=O)NS(C)(=O)=O)cnn1CC12CC3CC(CC(C3)C1)C2 [Example 75]" result="< 0.1 nM"
molecule="COC12CC3CC(CC(Cn4ncc(-c5ccc(N6CCc7cccc(C(=O)Nc8nc9ccccc9s8)c7C6)nc5C(=O)NS(C)(=O)=O)c4C)(C3)C1)C2 [Example 37]" result="< 0.1 nM"
molecule="CNCCOC12CC3(C)CC(C)(CC(Cn4ncc(-c5ccc(N6CCc7cccc(C(=O)Nc8nc9ccccc9s8)c7C6)nc5C(=O)O)c4C)(C3)C1)C2 [Example 82]" result="< 0.1 nM"
molecule="CC12CC3CC(C)(C1)CC(Cn1cc(-c4ccc(N5CCc6cccc(C(=O)Nc7nc8ccccc8s7)c6C5)nc4C(=O)O)cn1)(C3)C2 [Example 5]" result="< 0.1 nM"
molecule="Cc1c(-c2ccc(N3CCc4cccc(C(=O)Nc5nc6ccccc6s5)c4C3)nc2C(=O)O)nnn1CC12CC3CC(CC(C3)O1)C2 [Example 66]" result="< 0.1 nM"
molecule="Cc1c(-c2ccc(N3CCc4cccc(C(=O)Nc5nc6ccccc6s5)c4C3)nc2C(=O)O)cnn1CC12CC3CC(CC(C3)O1)C2 [Example 59]" result="< 0.1 nM"
molecule="N#Cc1c(SC23CC4CC(CC(C4)C2)C3)cccc1-c1ccc(N2CCc3cccc(C(=O)Nc4nc5ccccc5s4)c3C2)nc1C(=O)O [Example 48]" result="0.2 nM"
molecule="Cc1c(-c2ccc(N3CCc4cccc(C(=O)Nc5nc6ccccc6s5)c4C3)nc2-c2nn[nH]n2)cnn1CC12CC3CC(CC(C3)C1)C2 [Example 19]" result="0.1 nM"

Task item: Complete the entry with Ki for N#Cc1c(-c2ccc(N3CCc4cccc(C(=O)Nc5nc6ccccc6s5)c4C3)nc2C(=O)O)cnn1CC12CC3CC(CC(C3)C1)C2 [Example 29]
Reply: < 0.1 nM

Task item: Complete the entry with Ki for Cc1c(-c2ccc(N3CCc4cccc(C(=O)Nc5nc6ccccc6s5)c4C3)nc2C(=O)O)cccc1N(C)C(=O)C12CC3CC(CC(C3)C1)C2 [Example 52]
Reply: 0.2 nM

###

- Target Or System: mouse FL5.12 cells transfected with Bcl-xL (Homo sapiens)
- Protocol: FL5.12 cellular assay (cell viability, CellTiter-Glo)
- Condition Summary: IL-3-depleted, 3% FBS assay media, 24 hours; read-out: FL5.12 Bcl-xL, −IL3, EC50
Readout Name: pEC50
By convention, pEC50 is the negative base-10 log of a molar concentration.

Task item: Complete the entry with pEC50 for Cc1c(-c2ccc(N3CCc4cccc(C(=O)Nc5nc6ccccc6s5)c4C3)nc2C(=O)NS(=O)(=O)C2CC2)cnn1CC12CC3CC(CC(C3)C1)C2
Reply: 9.00

Task item: Complete the entry with pEC50 for Cc1c(-c2ccc(N3CCc4cccc(C(=O)Nc5nc6cccnc6s5)c4C3)nc2C(=O)NS(C)(=O)=O)cnn1CC12CC3CC(CC(C3)C1)C2
Reply: 8.52

Task item: Complete the entry with pEC50 for Cc1c(-c2ccc(N3CCc4cccc(C(=O)Nc5nc6ccccc6s5)c4C3)nc2C(=O)NS(C)(=O)=O)cc(C#N)n1CC12CC3CC(CC(C3)C1)C2
Reply: 9.00

Task item: Complete the entry with pEC50 for Cc1c(-c2ccc(N3CCc4cccc(C(=O)Nc5nc6ccccc6s5)c4C3)nc2C(=O)O)cnn1CC12CC3CC(C)(CC(C)(C3)C1)C2
Reply: 9.00

Task item: Complete the entry with pEC50 for Cc1c(-c2ccc(N3CCc4cccc(C(=O)Nc5cn6ccccc6n5)c4C3)nc2C(=O)O)cnn1CC12CC3CC(CC(C3)C1)C2
Reply: 8.30

Task item: Complete the entry with pEC50 for COC1(Cn2ncc(-c3ccc(N4CCc5cccc(C(=O)Nc6nc7ccccc7s6)c5C4)nc3C(=O)O)c2C)CCCC2(CC2)C1 (stereo not drawn)
Reply: 9.05

Task item: Complete the entry with pEC50 for Cc1c(-c2ccc(N3CCc4cccc(C(=O)Nc5nc6ccccc6s5)c4C3)nc2C(=O)O)ccnc1NC12CC3CC(CC(C3)C1)C2
Reply: 7.15

Task item: Complete the entry with pEC50 for CC12CC3(C)CC(C)(C1)CC(Cn1cc(-c4ccc(N5CCc6cccc(C(=O)Nc7nc8ccccc8s7)c6C5)nc4C(=O)O)cn1)(C2)C3
Reply: 8.52

Task item: Complete the entry with pEC50 for Cc1c(-c2ccc(N3CCc4cccc(C(=O)Nc5nc6ccccc6s5)c4C3)nc2C(=O)O)cnn1CC1(OCCS(C)(=O)=O)CCCCCCC1
Reply: 9.00

Task item: Complete the entry with pEC50 for CC12CC3CC(C)(C1)CC(Cn1cc(-c4ccc(N5CCc6cccc(C(=O)Nc7nc8ccccc8s7)c6C5)nc4C(=O)O)cn1)(C3)C2
Reply: 8.70

Task item: Complete the entry with pEC50 for COCCC1(Cn2ncc(-c3ccc(N4CCc5cccc(C(=O)Nc6nc7ccccc7s6)c5C4)nc3C(=O)O)c2C)CCCCCCC1
Reply: 9.00

Task item: Complete the entry with pEC50 for Cc1c(-c2ccc(N3CCc4cccc(C(=O)Nc5nc6ccccc6s5)c4C3)nc2C(=O)O)cc(C#N)n1CC12CC3CC(CC(C3)O1)C2
Reply: 9.00

Task item: Complete the entry with pEC50 for Cc1c(-c2ccc(N3CCc4cccc(C(=O)Nc5nc6ccccc6s5)c4C3)nc2C(=O)O)nnn1CC12CC3CC(CC(C3)O1)C2
Reply: 7.59

Task item: Complete the entry with pEC50 for COC12CC3CC(CC(Cn4ncc(-c5ccc(N6CCc7cccc(C(=O)Nc8nc9ccccc9s8)c7C6)nc5C(=O)NS(=O)(=O)C(F)(F)F)c4C)(C3)C1)C2
Reply: 7.33

Origin of the recorded values: patent US11786519B2
